target: AGE-BSA (Bos taurus, UniProt P02769); construct: Bovine serum albumin (fraction V) (BSA); from tissue; host or cells: bovine serum (fraction V); own knowledge: fraction V is the albumin fraction of plasma/serum; assay: In-vitro screening for AGE-breaking activity (AGE-BSA incubated with compound; ELISA / gel permeation chromatography); type: biochemical, bovine; details: 10 mM compound, 37° C., 24 hours
Sequence (P02769 25-607): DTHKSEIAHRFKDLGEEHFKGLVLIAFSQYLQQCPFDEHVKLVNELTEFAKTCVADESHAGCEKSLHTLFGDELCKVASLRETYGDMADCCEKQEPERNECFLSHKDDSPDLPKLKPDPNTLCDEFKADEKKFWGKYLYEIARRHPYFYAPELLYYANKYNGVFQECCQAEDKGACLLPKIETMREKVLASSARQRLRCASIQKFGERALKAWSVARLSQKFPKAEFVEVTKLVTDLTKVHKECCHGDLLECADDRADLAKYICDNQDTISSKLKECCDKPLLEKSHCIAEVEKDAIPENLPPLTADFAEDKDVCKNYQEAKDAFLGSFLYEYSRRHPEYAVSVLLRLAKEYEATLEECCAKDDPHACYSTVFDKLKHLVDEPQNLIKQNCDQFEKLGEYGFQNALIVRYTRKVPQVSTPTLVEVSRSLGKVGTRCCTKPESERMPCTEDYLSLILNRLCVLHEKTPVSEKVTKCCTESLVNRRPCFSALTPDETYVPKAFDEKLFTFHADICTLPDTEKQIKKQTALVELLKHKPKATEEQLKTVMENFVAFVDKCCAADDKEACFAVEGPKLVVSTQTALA
recorded metric: % Breakage (%)
Give just the number in %; leave the unit off.

O=C(C[n+]1cccc(-c2cc(Cc3ccccc3)nn2-c2ccccc2)c1)c1ccccc1.[Cl-] :: 91.22
O=C(C[n+]1cccc(-c2cc(Cc3ccccc3)n[nH]2)c1)c1ccccc1.[Br-] :: 58.14
Cc1cc(C)n(Cc2cc(-c3ccc[n+](CC(=O)c4cc([N+](=O)[O-])cs4)c3)n(C3CCCCC3)n2)n1.[Br-] :: 86.98

// below: % Breakage requested for another molecule
Prompt: Fill blank: measured % Breakage of the molecule Cc1cc(C)n(Cc2cc(-c3ccc[n+](CC(=O)c4ccccc4)c3)[nH]n2)n1.[Cl-] is ____.
Completion: 52.27

* * *

test: Free radical scavenging activity on ABTS radical cation; assay type: biochemical; settings: 50.0 μM
Known Relative Free Radical Scavenging Activity (%) on ABTS of a selection of compounds
Give just the number in %; leave the unit off.

// worked examples, Relative Free Radical Scavenging Activity (%) on ABTS included
Cc1cc(C)n(Cc2cc(-c3ccc[n+](CC(=O)c4cccs4)c3)n(-c3ccccn3)n2)n1.[Br-] [Compound 6] :: 61.68
Cc1cc(C)n(Cc2cc(-c3ccc[n+](CC(=O)c4cc([N+](=O)[O-])cs4)c3)n(C3CCCCC3)n2)n1.[Br-] [Compound 27] :: 39.05
Cc1ccc(C(=O)C[n+]2cccc(-c3cc(Cc4ccccc4)n[nH]3)c2)s1.[Cl-] [Compound 12] :: 71.47
O=C(C[n+]1cccc(-c2cc(CCC3CCCCC3)nn2-c2ccccc2)c1)c1cccs1.[Br-] [Compound 37] :: 41.95

// below: Relative Free Radical Scavenging Activity (%) on ABTS requested for another compound
Prompt: Fill blank: measured Relative Free Radical Scavenging Activity (%) on ABTS of the compound O=C(C[n+]1cccc(-c2cc(Cc3ccccc3)nn2-c2ccccc2)c1)c1cccs1.[Cl-] [Compound 11] is ____.
Completion: 70.61

* * *

Known Relative Free Radical Scavenging Activity (%) on ABTS of a selection of compounds
assay: Free radical scavenging activity on ABTS radical cation; format: biochemical; settings: 50.0 μM
Give just the number in %; leave the unit off.

Cc1cc(C)n(Cc2cc(-c3ccc[n+](CC(=O)c4ccccc4)c3)n(-c3ccccc3)n2)n1.[Br-] [Compound 26] :: 41.66
O=C(C[n+]1cccc(-c2cc(COc3ccccc3)nn2-c2ccccc2)c1)c1ccccc1.[Cl-] [Compound 34] :: 26.39
O=C(C[n+]1cccc(-c2cc(Cc3ccccc3)nn2-c2ccccc2)c1)c1ccccc1.[Cl-] [Compound 19] :: 37.62

// below: Relative Free Radical Scavenging Activity (%) on ABTS requested for another compound
Prompt: Fill blank: measured Relative Free Radical Scavenging Activity (%) on ABTS of the compound O=C(C[n+]1cccc(-c2cc(COc3ccccc3)nn2-c2ccccc2)c1)c1cccs1.[Cl-] [Compound 29] is ____.
Completion: 58.84
